# measurement target: Mitogen-activated protein kinase 11 (Homo sapiens, UniProt Q15759)
# Sequence (Q15759 whole entry): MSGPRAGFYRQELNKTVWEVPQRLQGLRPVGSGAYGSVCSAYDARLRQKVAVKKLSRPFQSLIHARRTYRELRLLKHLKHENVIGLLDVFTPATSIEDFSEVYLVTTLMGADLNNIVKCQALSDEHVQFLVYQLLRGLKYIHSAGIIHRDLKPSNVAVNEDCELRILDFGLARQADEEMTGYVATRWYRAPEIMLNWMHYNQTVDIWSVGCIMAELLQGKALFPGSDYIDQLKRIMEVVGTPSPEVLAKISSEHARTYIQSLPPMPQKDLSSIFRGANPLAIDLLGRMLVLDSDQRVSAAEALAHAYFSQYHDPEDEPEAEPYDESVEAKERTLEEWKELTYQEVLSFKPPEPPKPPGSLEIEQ
# measurement notes: Inhibition of Mitogen-activated protein kinase p38 beta by 1 uM.
inhibition vs 20%: at or above is rule met, below is rule not met.

{"structure smiles": "Cc1cc([N+](=O)[O-])cc(Cl)c1N1C(=O)NCc2nc(Sc3ccc(F)cc3)ccc21", "label value": "rule met"}
{"structure smiles": "O=C1NCc2nc(Sc3ccccc3C(F)(F)F)ccc2N1c1c(Cl)cccc1Cl", "label value": "rule met"}
{"structure smiles": "O=C1NCc2nc(Sc3ccc(F)cc3)ccc2N1c1ccccc1-c1ccccc1", "label value": "rule not met"}
{"structure smiles": "COc1cccc(C)c1N1C(=O)NCc2nc(Sc3ccc(F)cc3)ccc21", "label value": "rule met"}
{"structure smiles": "Cc1cccc(O)c1N1C(=O)NCc2nc(Sc3ccc(F)cc3)ccc21", "label value": "rule not met"}
{"structure smiles": "O=C1NCc2nc(NCc3ccc(Cl)cc3Cl)ccc2N1c1c(Cl)cccc1Cl", "label value": "rule not met"}
{"structure smiles": "O=C1NCc2nc(Sc3ccc(F)cc3)ccc2N1c1c(Cl)cccc1CO", "label value": "rule met"}
{"structure smiles": "O=C1NCc2nc(NCc3ccc(F)cc3F)ccc2N1c1c(Cl)cccc1Cl", "label value": "rule met"}
